test system: crabgrass; assay: Test B pre/postemergence crabgrass; assay type: in vivo, Digitaria sanguinalis; conditions: Postemergence, Rate 500 g/ha; scale of 0 to 10 where 0 is no effect and 10 is complete control
OUTCOME_MEASURE: Crabgrass plant response rating
// no unit, no text: just the number

QUERY: Look at this compound and give its reported Crabgrass plant response rating. CC[Si](C)(C)Cn1c(=O)on(C(=O)N(c2ccc(Cl)cc2)C(C)C)c1=O
RESULT: 9

====

# Plant response rating, Soybean listing for each entry below
tested on: soybean; test: Test B pre/postemergence soybean; type: in vivo, Glycine max; details: Rate 250 g/ha, Postemergence; scale of 0 to 10 where 0 is no effect and 10 is complete control
// no unit, no text: just the number

QUERY: Look at this molecule and give its reported Plant response rating, Soybean. CCN(C(=O)n1oc(=O)n(C2CC2)c1=O)C1CCCCC1
RESULT: 3

QUERY: Look at this molecule and give its reported Plant response rating, Soybean. CC(C)N(C(=O)n1oc(=O)n(C2CCCC2)c1=O)c1ccc(F)cc1
RESULT: 5

QUERY: Look at this molecule and give its reported Plant response rating, Soybean. CC(C)N(C(=O)n1oc(=O)n(CCc2ccccc2)c1=O)c1ccccc1
RESULT: 4

QUERY: Look at this molecule and give its reported Plant response rating, Soybean. CC(C)N(C(=O)n1oc(=O)n(Cc2nnsc2Cl)c1=O)c1ccc(F)cc1F
RESULT: 3

QUERY: Look at this molecule and give its reported Plant response rating, Soybean. CC(C)N(C(=O)n1oc(=O)n(C2CC3CCC2C3)c1=O)c1ccccc1 (centres unmarked)
RESULT: 5

====

# Giant foxtail plant response rating (0 to 10 scale) listing for each entry below
tested on: giant foxtail; test: Test B pre/postemergence giant foxtail; type: in vivo, Setaria faberii; conditions: Preemergence, Rate 125 g/ha
// no unit, no text: just the number

CC(C)N(C(=O)n1oc(=O)n(C2CC3CCC2C3)c1=O)c1ccc(F)cc1 (stereo not shown) : 8

QUERY: API: value(readout= Giant foxtail plant response rating (0 to 10 scale), system= giant foxtail, query= CC(C)N(C(=O)n1oc(=O)n(C2(C)CC2)c1=O)c1ccc(Cl)cc1 )
RESULT: 9

QUERY: API: value(readout= Giant foxtail plant response rating (0 to 10 scale), system= giant foxtail, query= CCN(C(=O)n1oc(=O)n(C2CC2)c1=O)C1CCCCC1 )
RESULT: 0

QUERY: API: value(readout= Giant foxtail plant response rating (0 to 10 scale), system= giant foxtail, query= CC(C)N(C(=O)n1oc(=O)n(C)c1=O)c1ccc(F)cc1F )
RESULT: 10

QUERY: API: value(readout= Giant foxtail plant response rating (0 to 10 scale), system= giant foxtail, query= CC1CC1n1c(=O)on(C(=O)N(c2ccccc2)C(C)C)c1=O (stereo not shown) )
RESULT: 10

QUERY: API: value(readout= Giant foxtail plant response rating (0 to 10 scale), system= giant foxtail, query= CCc1cccc(CC)c1-n1c(=O)on(C(=O)N(c2ccc(F)cc2)C(C)C)c1=O )
RESULT: 4

QUERY: API: value(readout= Giant foxtail plant response rating (0 to 10 scale), system= giant foxtail, query= Cc1cccc(C(C)(C)C)c1-n1c(=O)on(C(=O)N(c2ccccc2)C(C)C)c1=O )
RESULT: 0

These entries and their values trace back to patent US6737383B1.
